# PROCEDURE_DETAILS: Ratio of AUC (0.25 to last) in mouse brain to plasma at 3 mg/kg, ip
# Format: ADME, organism-based
# EXPERIMENTAL_CONTEXT: read-out: Ratio AUC

| CHEM_SMILES | Kp |
| --- | --- |
| CC(=O)Nc1ccc(-c2ccc(NC[C@@H]3CC34CCN(CC3CCOCC3)CC4)nn2)cc1 | 0.38 |

* * *

# PROCEDURE_DETAILS: Cmax in mouse brain at 3 mg/kg, ip
# Format: ADME, organism-based
# Parameters: dose 3 mg/kg, route ip

| CHEM_SMILES | Cmax / ng/g |
| --- | --- |
| CC(=O)Nc1ccc(-c2ccc(NC[C@@H]3CC34CCN(CC3CCOCC3)CC4)nn2)cc1 | 738 |
